Kindly state Growth Rate for each of the entries shown.
System: HEK-293T
assay notes: Incucyte cell viability with HEK293T; also: filed as whole numbers so only -1 and 0 and 1 occur
Type: toxicity, cell-based
condition info: human, 12 h, 10 µM, compound concentration 10 uM, replicate number 2, timepoint 12 hours
Give bare numbers.

Known results for molecules:
molecule	observed value
CCOc1cc(N2CCC(O)CC2)ccc1Nc1ncc2c(n1)N(C)c1ccccc1C(=O)N2C	1
C[C@@H]1CCN(C(=O)CC#N)C[C@@H]1N(C)c1ncnc2[nH]ccc12.O=C(O)CC(O)(CC(=O)O)C(=O)O [TOFACITINIB CITRATE]	1
Nc1c(C(=O)NCc2ccc(C(=O)NCCCC3CCCCC3)cc2)cnn1-c1ccccc1	0

Please state Growth Rate for every molecule in the list that follows.
1. COc1ccc(C2(O)OC(=O)C(c3ccc4c(c3)OCO4)=C2Cc2cc(OC)c(OC)c(OC)c2)cc1 (centres undefined)
2. CC[C@H](C)C(=O)O[C@H]1C[C@@H](C)C=C2C=C[C@H](C)[C@H](CC[C@@H]3C[C@@H](O)CC(=O)O3)[C@H]21
3. CN(C)C(=O)c1ccc(-c2cc(C(=O)N[C@@H]3CCc4ccccc43)no2)cc1O

1: 0; 2: 1; 3: 0
